# Assay target: AR (gene 367)
# Run description: ACEA_AR_agonist_80hr: ACEA Biosciences xCELLigence Real-Time Cell Analysis on Androgen Receptor Agonism for Proliferation (AID 2283783);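 note: hits increase impedance growth signal above DMSO baseline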
Records with an inconclusive call do not appear. Calls of active or inactive are those of the source. Rule for the calls: active = hit-call score of the fitted dose curve at least 0.9, where 1 is the maximum; inconclusive = response in the unintended direction; inactive = score below 0.9.
Your answer must be one of the following: YES for active, NO for inactive

# input Field: outcome | Entry: `O=[N+]([O-])c1ccc(O)c([N+](=O)[O-])c1`
# output NO

# input And for `O=c1[nH]c(=O)[nH]c(=O)[nH]1` ?
# output NO

# input And for `C=CC(=O)OCCCCCC(C)C` ?
# output YES

# input And for O=C1C2(Cl)C3(Cl)C4(Cl)C(Cl)(Cl)C5(Cl)C3(Cl)C1(Cl)C5(Cl)C24Cl (stereo not given) ?
# output NO

# input And for `CCN1CCC2(CC1)COc1cc3c(cc12)N(C(=O)c1ccc(-c2ccc(-c4nnc(C)o4)cc2C)cc1)CC3` ?
# output NO

* * *

# Assay target: Nuclear receptor subfamily 1 group I member 2 (Homo sapiens)
# Run description: ATG_PXR_TRANS: Attagene TRANS-FACTORIAL HepG2 Assay for human Pregnane X Receptor (PXR) (AID 2283008)
Inconclusive results are not listed. Active and inactive are the calls of the source. The calls were made as follows: active = hit-call score of the fitted dose curve at least 0.9, where 1 is the maximum; inconclusive = response in the unintended direction; inactive = score below 0.9.
Your answer must be one of the following: True for active, False for inactive

Observe how each entry below is paired with its result.
| Compound | Class label |
| --- | --- |
| O=C(c1ccccc1)C(Cl)Cl | False |
| Cc1ccc2ccccc2c1C | False |
| Cc1cc(=O)[nH]o1 | False |
| CCOP(=S)(OCC)Oc1ccc(S(C)=O)cc1 (centres undefined) | True |
| CC(C)(c1ccccc1)c1ccc(O)c(C(C)(C)c2ccccc2)c1 | True |
| COP(=S)(OC)Oc1c(Cl)cc(C)cc1Cl | True |
| O=S(=O)(c1ccc(Cl)cc1)c1ccc(Cl)cc1 | True |
| O=C(O)Cc1ccccc1 | False |

# input Field: outcome | Entry: `COc1cc(-c2ccc(N)c(OC)c2)ccc1N`
# output False

# input And for Clc1ccc(COC(Cn2ccnc2)c2ccc(Cl)cc2Cl)cc1 (centres undefined) ?
# output True

# input And for `CCCCCCCCC(=O)NCc1ccc(O)c(OC)c1` ?
# output False

# input And for `CC(C)OC(=O)Nc1ccccc1` ?
# output False

# input And for `CCOC(=O)/C=C(C)/C=C/C[C@@H](C)CCCC(C)C` ?
# output True

# input And for `C(=NC1CCCCC1)=NC1CCCCC1` ?
# output False

# input And for `CC(C)c1ccc(CO)cc1` ?
# output False

* * *

# Read-out: Bcl-2 (BAD) gene, BAD (gene 572)
# Run description: LTEA_HepaRG_BAD: Life Technologies and Expression Analysis (LTEA) Assay for Bcl-2 (BAD) gene using HepaRG (AID 2283469)
# Experimental parameters: mRNA level, 48 h; actives raise or lower the signal
Active and inactive are the calls of the source. The calls were made as follows: active = hit-call score of the fitted dose curve at least 0.9, where 1 is the maximum; inactive = score below 0.9.
Your answer must be one of the following: active, inactive

Observe how each entry below is paired with its result.
| Molecule | Class label |
| --- | --- |
| Cn1sc(Cl)cc1=O | inactive |
| C=C(C)C(=O)[O][Sn]([CH2]CCC)([CH2]CCC)[CH2]CCC | inactive |
| C=CC(=O)OCCCCCC(C)C | inactive |

# input Field: outcome | Entry: CC12CC1(C)C(=O)N(c1cc(Cl)cc(Cl)c1)C2=O (stereo not drawn)
# output inactive

# input And for `CCOP(=S)(OCC)SCSP(=S)(OCC)OCC` ?
# output inactive

# input And for `NC(=O)O` ?
# output inactive

# input And for `CCOP(=S)(OCC)Oc1nc(Cl)c(Cl)cc1Cl` ?
# output inactive

# input And for `CCC(C)(C)c1ccc(O)c(C(C)(C)CC)c1` ?
# output inactive

# input And for CCC(=O)C(CC(C)N(C)C)(c1ccccc1)c1ccccc1 (stereo not drawn) ?
# output inactive

# input And for `ClCC(Cl)CCl` ?
# output inactive
